Assay: Antagonist activity at CCR1 in human THP1 cells assessed as inhibition of chemotaxis after 30 mins by Celltiter-glo reagent based luminescence assay
experimental-readout: pIC50
Worth noting: pIC50 values are minus log10 of concentrations stated in mol/L.

Worked examples, 3 molecules total:
CC(C)(O)c1ccc2c(c1)/C(=C\CCN1CC[C@](O)(c3ccc(Cl)cc3)C(C)(C)C1)c1cccnc1CO2
8.74
CC(C)[C@@H](NC(=O)NCC(C)(C)O)C(=O)N1CC[C@](O)(c2ccc(Cl)cc2)C(C)(C)C1
8.82
Cc1c(C(=O)NCc2cccc(C(F)(F)F)c2)cnn1-c1ccc(Cl)c(Cl)c1
5.92

Note: attention shifts to another entry.
stdin: Bench note: what pIC50 did `COc1cc(N2CCN(C(=O)Cn3nc(-c4ncc[nH]4)c4cccnc43)CC2)ccc1Cl` show?
stdout: 8.40
